The measured values listed here are drawn from PubChem BioAssay (NCI).

- Tested on: HOP-62 NSCLC
- Test: NCI tumour cell line growth inhibition, 48 h; in the data active = GI50 below about 0.43 µM; inactive = the rest
Tick one outcome: 1.0 (active), 0.0 (inactive)

## Input What classification did Cc1cc2nc3c4cc(O)ccc4n(CCN(C)C)c3nc2cc1C end up with in this test?
## Output 0.0

## Input Which outcome was assigned to CCOC(=O)c1ccc(NC(=O)Nc2nncs2)cc1 in this test?
## Output 1.0

## Input Please share the test call associated with Fc1cc2[nH]ncc2c2c3c(c(-c4cn[nH]c4C(F)(F)F)nc12)CCCC3 .
## Output 0.0

## Input Assay result, entry CC(=O)Nc1ccc2c(c1)C(c1ccccc1Cl)=Nc1c(n[nH]c1C)N2 — outcome?
## Output 0.0

## Input For COc1ccc(C2CC(c3cccc(Nc4ccnc5cc(Cl)ccc45)c3)=NN2C=O)cc1 (centres undefined) , what call appears in the results of this test?
## Output 0.0

## Input Returns: the outcome recorded for O=S(=O)(NCCCNc1nccc(-c2c(-c3ccc(O)cc3)nc3sccn23)n1)c1ccc(F)cc1 in this assay.
## Output 0.0

## Input So what was the verdict on O=c1c2c(=NCCN3CCCC3)cc3c(=O)n(CCCN4CCOCC4)c(=O)c4c(-c5ccc(CN6CCCC6)cc5)cc(c(O)n1CCCN1CCOCC1)c2c4-3 in this test?
## Output 1.0

## Input For Cc1cccc(N(C)C(=O)[C@@H]2[C@H](O)CCN2c2nc(C)cc(C(F)(F)F)c2C#N)c1 , what call appears in the results of this test?
## Output 0.0

## Input Which outcome was entered for the compound CC(N)C(Cc1ccc(Cl)cc1)c1ccc(Cl)cc1 (centres undefined) in this test?
## Output 0.0
